- assaySystem: human TLR7 (Homo sapiens (Human))
- Sequence (Q9NYK1 27-1049): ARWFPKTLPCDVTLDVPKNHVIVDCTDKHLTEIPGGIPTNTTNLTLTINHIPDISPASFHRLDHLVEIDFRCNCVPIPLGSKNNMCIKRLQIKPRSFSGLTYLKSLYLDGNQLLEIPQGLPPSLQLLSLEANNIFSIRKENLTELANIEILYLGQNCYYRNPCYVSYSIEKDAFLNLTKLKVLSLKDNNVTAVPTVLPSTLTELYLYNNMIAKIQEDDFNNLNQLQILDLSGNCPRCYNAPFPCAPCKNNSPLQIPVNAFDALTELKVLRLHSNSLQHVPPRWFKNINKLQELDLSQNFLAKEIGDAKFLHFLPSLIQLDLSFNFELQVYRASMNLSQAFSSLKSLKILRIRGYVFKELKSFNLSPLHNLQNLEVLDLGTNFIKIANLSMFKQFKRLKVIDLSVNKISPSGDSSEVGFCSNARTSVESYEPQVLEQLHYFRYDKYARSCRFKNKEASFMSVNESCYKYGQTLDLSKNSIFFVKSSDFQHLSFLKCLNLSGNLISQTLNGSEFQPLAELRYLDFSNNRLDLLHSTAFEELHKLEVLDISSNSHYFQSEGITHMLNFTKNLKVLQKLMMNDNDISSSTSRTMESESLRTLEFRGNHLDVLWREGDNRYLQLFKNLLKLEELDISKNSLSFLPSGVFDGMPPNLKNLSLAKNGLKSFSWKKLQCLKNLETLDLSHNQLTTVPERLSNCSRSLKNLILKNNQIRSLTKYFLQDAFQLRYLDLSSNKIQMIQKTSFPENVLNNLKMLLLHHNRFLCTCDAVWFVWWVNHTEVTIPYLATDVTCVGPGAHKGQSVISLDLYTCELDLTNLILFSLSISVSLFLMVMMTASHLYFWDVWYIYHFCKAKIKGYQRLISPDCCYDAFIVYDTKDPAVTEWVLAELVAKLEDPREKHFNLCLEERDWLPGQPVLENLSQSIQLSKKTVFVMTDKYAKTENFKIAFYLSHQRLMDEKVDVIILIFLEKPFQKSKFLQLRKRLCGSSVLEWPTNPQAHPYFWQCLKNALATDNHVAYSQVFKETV
- assayProcedure: TLR7 inhibition reporter assay (HEK-Blue SEAP)
- Type: cell-based
- conditionsUsed: HEK-Blue cells overexpressing human TLR7, gardiquimod 7.5 μM stimulation, SEAP reporter
IC50 listing for selected compounds.
Express the result in nM but write the number alone.

Identify measured IC50 associated with COc1cc(-c2[nH]c3ccc(C4CCC(N5CCC[C@H]5CO)CC4)nc3c2C(C)C)cn2ncnc12 (stereo partly shown) [Example 173]
2

Identify measured IC50 associated with "Cc1c(-c2[nH]c3ccc(N4CCC(N(Cc5ncnn5C)Cc5ncnn5C)CC4)nc3c2C(C)C)cn2ncnc2c1C"
34

----------
- assaySystem: human TLR7 (Homo sapiens (Human))
- assayProcedure: TLR7 inhibition reporter assay (HEK-Blue SEAP)
- Type: cell-based
- conditionsUsed: HEK-Blue cells overexpressing human TLR7, SEAP reporter, gardiquimod 7.5 μM
IC50 listing for selected compounds.
# output: number + unit

compound	IC50
Cc1c(-c2[nH]c3ccc(C4CC(N(C)CCS(C)(=O)=O)C4)nc3c2C(C)C)cn2ncnc2c1C (stereo not drawn) [Example 621]	7 nM

# assay system human TLR7 (Homo sapiens (Human)): give IC50 of Cc1c(-c2[nH]c3ccc(C4CC(N(C)C)C4)nc3c2C(C)C)cn2ncnc2c1C (stereo not drawn) [Example 623]
1.6 nM

# assay system human TLR7 (Homo sapiens (Human)): give IC50 of Cc1c(-c2[nH]c3ccc(C4CC(N(C)CC5(C)COC5)C4)nc3c2C(C)C)cn2ncnc2c1C (stereo not drawn) [Example 626]
29 nM

These data points were gathered from patent US10544143B2.
